Reference source: patent US20250034170A1

- target.under.test: GCase (Homo sapiens, UniProt P04062)
- Construct: endogenous in cells; host or cells: HeLa cells
- Sequence (P04062 40-536): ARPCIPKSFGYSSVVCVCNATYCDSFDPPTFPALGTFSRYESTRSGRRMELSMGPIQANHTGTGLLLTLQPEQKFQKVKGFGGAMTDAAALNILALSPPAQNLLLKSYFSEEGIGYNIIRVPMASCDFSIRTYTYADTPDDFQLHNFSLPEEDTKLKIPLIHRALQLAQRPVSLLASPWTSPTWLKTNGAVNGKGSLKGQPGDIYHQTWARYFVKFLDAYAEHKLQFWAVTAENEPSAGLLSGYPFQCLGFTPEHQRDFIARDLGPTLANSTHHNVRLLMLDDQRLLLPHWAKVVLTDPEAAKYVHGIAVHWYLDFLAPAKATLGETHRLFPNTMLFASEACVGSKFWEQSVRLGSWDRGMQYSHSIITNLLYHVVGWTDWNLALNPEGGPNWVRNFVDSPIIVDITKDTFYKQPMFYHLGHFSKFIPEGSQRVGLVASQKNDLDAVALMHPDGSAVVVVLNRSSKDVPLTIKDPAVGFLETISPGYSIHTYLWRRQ
- experiment: activation of GCase in a live cell PFB assay in HELA cells
- Assay type: cell-based
- recorded.conditions: EC50 given as range classes
- Protocol: Exemplary compounds were evaluated for activation of GCase in a live cell PFB assay in HELA cells (essentially as described in Ysselstein et al., “LRRK2 kinase activity regulates lysosomal glucocerebrosidase in neurons derived from Parkinson's disease patients” Nature Communications (2019) 10:5570). […] EC50 ranges: A: <10 μM; B: >10-50 μM; C: >50-100 μM; D: >100 μM.
readout.type: EC50

Worked examples follow.
- molecule: "FC(F)Cn1ncc2ncc(N3CCC4(CC3)CN(c3cccc(C(F)(F)F)n3)CCO4)nc21"
  EC50: "10 to 50 µM"
- molecule: "O=C1N(c2cnc3cnn(CC(F)F)c3n2)CCC12CC1CCC(C2)N1c1ccc(C(F)(F)F)nc1 (stereo not shown)"
  EC50: "< 10 µM"
- molecule: "Cn1c(N2CCC3(CN(c4ccnc(C(F)(F)F)c4)C3)C2)nc2c(cnn2CC(F)F)c1=O"
  EC50: "> 100 µM"

// lookup EC50 for FC(F)(F)c1ccnc(N2CCC3(CCN(c4cncc(-c5nncs5)n4)CC3)C2)c1
10 to 50 µM

// lookup EC50 for FC(F)Cn1ncc2ncc(N3CCC4(CCCN(c5cccc(C(F)(F)F)n5)C4)CC3)nc21
10 to 50 µM

// lookup EC50 for CCCc1cnc(C(F)(F)F)cc1N1CC2(CCN(c3cnc4cnn(CC(F)F)c4n3)C2)C1
< 10 µM

// lookup EC50 for O=C1N(c2cncc(C(F)(F)F)c2)CCC12CCN(c1cnc3cnn(CC(F)F)c3n1)C2 (stereo not shown)
10 to 50 µM

// lookup EC50 for Cc1nc(N2CCC3(CC2)CCN(c2ncc4cnn(CC(F)F)c4n2)C3)cc(C(F)(F)F)n1
10 to 50 µM

// lookup EC50 for FC(F)Cn1ncc2ncc(N3CCC4(CC3)CC(Nc3cccc(C(F)(F)F)n3)C4)nc21
10 to 50 µM

// lookup EC50 for O=C1N(c2cnc3cnn(CC(F)F)c3n2)CCC12CN(c1ccc(C(F)(F)F)cn1)C2
10 to 50 µM

// lookup EC50 for Cn1c(N2CCC3(CN(c4cnc(C(F)(F)F)nc4)C3)C2)nc2c(cnn2CC(F)(F)F)c1=O
10 to 50 µM

// lookup EC50 for O=C(c1ccccc1OC(F)F)N1CC2(CCN(c3cnc4cnn(CC(F)F)c4n3)C2)C1
< 10 µM

// lookup EC50 for CC(C)c1cnc(C(F)(F)F)cc1N1CC2(CCN(c3cnc4cnn(CC(F)F)c4n3)C2)C1
< 10 µM

// lookup EC50 for Cc1ncc(N2CC3(CCN(c4cnc5c(C)nn(C6COC6)c5n4)C3)C2)c(C(F)(F)F)n1
10 to 50 µM

// lookup EC50 for FC(F)(F)Cn1ncc2cnc(N3CCC4(CN(c5ccnc(C(F)(F)F)c5)C4)C3)nc21
< 10 µM

// lookup EC50 for COc1nc(N2CCC3(CCN(c4cnc5cnn(CC(F)F)c5n4)CC3)C2=O)ccc1C(F)(F)F
50 to 100 µM
